Assay: HDX of amide protons by NMR in CDCl3:CD3OD (8:2)
Conditions: 20% CD3OD in CDCl3, % remaining after 24 hours
Starred links: 1 amine or outer side, 2 acyl side, 3 side chain; linkers in the order of their positions; H or OH if unused. Non-standard residues stand in square brackets, D forms with d. Residues, ends and D or L forms follow the SMILES beside them. X1 = CC(C)C[C@H](NC(=S)[C@H](Cc1ccc(O)cc1)N[*:1])C(=O)[*:2]; X2 = CC(C)C[C@H](NC(=S)[C@@H](CC(C)C)N[*:1])C(=O)[*:2]; X3 = CC(C)C[C@H](N[*:1])C(=S)N[C@H](CC(C)C)C(=O)[*:2]
PARAMETER: % intact NH, Leu6 (%)

Sample answers from the record:
- COMPOUND: "CC(C)C[C@@H]1NC(=O)[C@@H](CC(C)C)NC(=O)[C@H](CC(C)C)NC(=S)[C@H](Cc2ccc(O)cc2)NC(=O)[C@H]2CCCN2C(=O)[C@H](CC(C)C)NC1=O [10e] (cyclo(LL[dP][X1][dL]))"
  UNITS TEXT: "%"
  % intact NH, Leu6: 70
- COMPOUND: "CC(C)C[C@@H]1NC(=O)[C@H](Cc2ccc(O)cc2)NC(=O)[C@H]2CCCN2C(=O)[C@H](CC(C)C)NC(=O)[C@H](CC(C)C)NC(=O)[C@@H](CC(C)C)NC1=O [compound 10, cyclo(-D-Leu^1-Leu-Leu-D-Pro-Tyr-Leu^6-)] (cyclo(LL[dP]YL[dL]))"
  UNITS TEXT: "%"
  % intact NH, Leu6: 90

(I) CC(C)C[C@@H]1NC(=O)[C@@H](CC(C)C)NC(=S)[C@H](CC(C)C)NC(=O)[C@H](Cc2ccc(O)cc2)NC(=O)[C@H]2CCCN2C(=O)[C@H](CC(C)C)NC1=O [10f] (cyclo(LL[dP]Y[X3]))
(II) CC(C)C[C@@H]1NC(=O)[C@H](Cc2ccc(O)cc2)NC(=O)[C@H]2CCCN2C(=O)[C@H](CC(C)C)NC(=O)[C@H](CC(C)C)NC(=S)[C@@H](CC(C)C)NC1=O [10a] (cyclo(L[dP]YL[X2]))
Problem: Out of I and II , name the one with the higher % intact NH, Leu6. Answer = label.
Result: II
(II: 89%, I: 52%)

====

Experiment: in vitro
Conditions: both, human, plasma
Non-standard residues stand in square brackets, D forms with d. Residues, ends and D or L forms follow the SMILES beside them. NMeL = CN[C@@H](CC(C)C)C(=O)O; dNMeL = CN[C@H](CC(C)C)C(=O)O
PARAMETER: remaining at 16 h (%)

- MOLECULE: "CC(C)C[C@@H]1NC(=O)[C@@H](CC(C)C)N(C)C(=O)[C@H](CC(C)C)NC(=O)[C@H](Cc2ccc(O)cc2)NC(=O)[C@H]2CCCN2C(=O)[C@H](CC(C)C)NC1=O [10g] (cyclo(LL[dP]YL[dNMeL]))"
  PARAMETER: "remaining at 16 h"
  UNITS TEXT: "%"
  MEASURED NUMBER: 51
- MOLECULE: "CC(C)C[C@@H]1NC(=O)[C@H](Cc2ccc(O)cc2)NC(=O)[C@H]2CCCN2C(=O)[C@H](CC(C)C)N(C)C(=O)[C@H](CC(C)C)NC(=O)[C@@H](CC(C)C)NC1=O [10i] (cyclo(L[NMeL][dP]YL[dL]))"
  PARAMETER: "remaining at 16 h"
  UNITS TEXT: "%"
  MEASURED NUMBER: 58

====

Papp A-B set 1 (second block) by entry:
System: Caco-2 cells;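 also: Caco-2 monolayers used 21 days after seeding in HBSS-HEPES buffer with 1% DMSO, donor and acceptor levels quantified by LC-MS/MS, TEER checked before and after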
Assay: in vitro
Assay type: in vitro ADME, human
Conditions: Caco-2
Starred links: 1 amine or outer side, 2 acyl side, 3 side chain; linkers in the order of their positions; H or OH if unused. Non-standard residues stand in square brackets, D forms with d. Residues, ends and D or L forms follow the SMILES beside them. X3 = CC(C)C[C@H](N[*:1])C(=S)N[C@H](CC(C)C)C(=O)[*:2]
Entry rule: numbers only, all in ×10⁻⁶ cm/s.

- MOLECULE: "C[C@H]1O[C@@H](O[C@H]2[C@@H](O)C[C@H](O[C@H]3[C@@H](O)C[C@H](O[C@H]4CC[C@@]5(C)[C@H](CC[C@@H]6[C@@H]5C[C@@H](O)[C@]5(C)[C@@H](C7=CC(=O)OC7)CC[C@]65O)C4)O[C@@H]3C)O[C@@H]2C)C[C@H](O)[C@@H]1O [Digoxin, reference compound]"
  Papp A-B set 1 (second block), ×10⁻⁶ cm/s: 0.79

For the next question, use this molecule.
Problem: Item CC(C)C[C@@H]1NC(=O)[C@@H](CC(C)C)NC(=S)[C@H](CC(C)C)NC(=O)[C@H](Cc2ccc(O)cc2)NC(=O)[C@H]2CCCN2C(=O)[C@H](CC(C)C)NC1=O [10f] (cyclo(LL[dP]Y[X3])) has what recorded Papp A-B set 1 (second block)?
Result: 4.57

====

Test: in vitro
Conditions: pig, simulated intestinal fluid
Starred links: 1 amine or outer side, 2 acyl side, 3 side chain; linkers in the order of their positions; H or OH if unused. Non-standard residues stand in square brackets, D forms with d. Residues, ends and D or L forms follow the SMILES beside them. X1 = CC(C)C[C@H](NC(=S)[C@H](Cc1ccc(O)cc1)N[*:1])C(=O)[*:2]; X6 = O=C([C@H](Cc1ccc(O)cc1)NC(=S)[C@H]1CCCN1[*:1])[*:2]; X4 = CC(C)C[C@H](N[*:1])C(=S)N1CCC[C@@H]1C(=O)[*:2]; NMeL = CN[C@@H](CC(C)C)C(=O)O; dNMeL = CN[C@H](CC(C)C)C(=O)O
PARAMETER: remaining at 0.5 h (%)

- COMPOUND: "CC(C)C[C@@H]1NC(=O)[C@@H](CC(C)C)N(C)C(=O)[C@H](CC(C)C)NC(=O)[C@H](Cc2ccc(O)cc2)NC(=O)[C@H]2CCCN2C(=O)[C@H](CC(C)C)NC1=O [10g] (cyclo(LL[dP]YL[dNMeL]))"
  UNITS TEXT: "%"
  remaining at 0.5 h: 41
- COMPOUND: "CC(C)C[C@@H]1NC(=O)[C@H](Cc2ccc(O)cc2)NC(=S)[C@H]2CCCN2C(=O)[C@H](CC(C)C)NC(=O)[C@H](CC(C)C)NC(=O)[C@@H](CC(C)C)NC1=O [10d] (cyclo(LL[X6]L[dL]))"
  UNITS TEXT: "%"
  remaining at 0.5 h: 62.8
- COMPOUND: "CC(C)C[C@@H]1NC(=O)[C@@H](CC(C)C)NC(=O)[C@H](CC(C)C)NC(=S)[C@H](Cc2ccc(O)cc2)NC(=O)[C@H]2CCCN2C(=O)[C@H](CC(C)C)NC1=O [10e] (cyclo(LL[dP][X1][dL]))"
  UNITS TEXT: "%"
  remaining at 0.5 h: 68.3
- COMPOUND: "CC(C)C[C@@H]1NC(=O)[C@H](Cc2ccc(O)cc2)NC(=O)[C@H]2CCCN2C(=O)[C@H](CC(C)C)NC(=O)[C@H](CC(C)C)N(C)C(=O)[C@@H](CC(C)C)NC1=O [10h] (cyclo(L[dL][NMeL]L[dP]Y))"
  UNITS TEXT: "%"
  remaining at 0.5 h: 63
- COMPOUND: "CC(C)C[C@@H]1NC(=O)[C@H](Cc2ccc(O)cc2)NC(=O)[C@H]2CCCN2C(=S)[C@H](CC(C)C)NC(=O)[C@H](CC(C)C)NC(=O)[C@@H](CC(C)C)NC1=O [10c] (cyclo(L[dL]L[X4]Y))"
  UNITS TEXT: "%"
  remaining at 0.5 h: 50.7

====

Assay: HDX of amide protons by NMR in DMSO-d6:D2O (8:2)
Settings: HDX by NMR, 20% D2O in DMSO-d6
Starred links: 1 amine or outer side, 2 acyl side, 3 side chain; linkers in the order of their positions; H or OH if unused. Non-standard residues stand in square brackets, D forms with d. Residues, ends and D or L forms follow the SMILES beside them. X1 = CC(C)C[C@H](NC(=S)[C@H](Cc1ccc(O)cc1)N[*:1])C(=O)[*:2]; X2 = CC(C)C[C@H](NC(=S)[C@@H](CC(C)C)N[*:1])C(=O)[*:2]; X3 = CC(C)C[C@H](N[*:1])C(=S)N[C@H](CC(C)C)C(=O)[*:2]
PARAMETER: Half-life of D-Leu1 amide proton (HDX) (min)

- MOLECULE: "CC(C)C[C@@H]1NC(=O)[C@H](Cc2ccc(O)cc2)NC(=O)[C@H]2CCCN2C(=O)[C@H](CC(C)C)NC(=O)[C@H](CC(C)C)NC(=S)[C@@H](CC(C)C)NC1=O [10a] (cyclo(L[dP]YL[X2]))"
  Half-life of D-Leu1 amide proton (HDX) / min: 170
- MOLECULE: "CC(C)C[C@@H]1NC(=O)[C@@H](CC(C)C)NC(=S)[C@H](CC(C)C)NC(=O)[C@H](Cc2ccc(O)cc2)NC(=O)[C@H]2CCCN2C(=O)[C@H](CC(C)C)NC1=O [10f] (cyclo(LL[dP]Y[X3]))"
  Half-life of D-Leu1 amide proton (HDX) / min: 1

(I) CC(C)C[C@@H]1NC(=O)[C@@H](CC(C)C)NC(=O)[C@H](CC(C)C)NC(=S)[C@H](Cc2ccc(O)cc2)NC(=O)[C@H]2CCCN2C(=O)[C@H](CC(C)C)NC1=O [10e] (cyclo(LL[dP][X1][dL]))
(II) CC(C)C[C@@H]1NC(=O)[C@H](Cc2ccc(O)cc2)NC(=O)[C@H]2CCCN2C(=O)[C@H](CC(C)C)NC(=O)[C@H](CC(C)C)NC(=O)[C@@H](CC(C)C)NC1=O [compound 10, cyclo(-D-Leu^1-Leu-Leu-D-Pro-Tyr-Leu^6-)] (cyclo(LL[dP]YL[dL]))
Problem: Just tell me: smaller Half-life of D-Leu1 amide proton (HDX) value, I or II ? In your reply, give the label of the chosen option.
Result: II
(II: 15 min, I: 46 min)
